Biological target: T1, P2-AA-1HGe-T
T1 chain: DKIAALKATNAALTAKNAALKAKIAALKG
Test: two-hybrid library CCmax;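 further: natural log of median RNA to DNA barcode read ratio; higher means stronger binding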
Conditions: mean of both orientations
Classify by measured interaction score: class 1 if it is equal to or exceeds 2, class 0 if it is smaller.

[[record]]
binder = "DEIAALEAKNAALKAENAALEAEIAALEG [4H465-AA]"
classlabel = "class 1"

[[record]]
binder = "DEIAALEAYNAALYAENAALEAEIAALEG [P1-AA-1HGe-Y]"
classlabel = "class 1"

[[record]]
binder = "DEIAALEADNAALDAENAALEAEIAALEG [P1-AA-1HGe-D]"
classlabel = "class 0"

[[record]]
binder = "DEIAALEAANAALAAENAALEAEIAALEG [P1-AA-1HGe-A]"
classlabel = "class 0"


Proceed to the following item.
## Task Test whether the binder DEIAALEAQNAALQAENAALEAEIAALEG [P1-AA-1HGe-Q] records interaction score of 2 or higher.
## Result class 1

Hello, the source for this data is paper PMC10397247, in case you need it.
